Origin of measurements: the supplement of paper PMC10567573

B1: ZNF263 (parent)
chain: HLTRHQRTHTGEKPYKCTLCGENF

# Variants of: B1
# test.name: protein stability index of a GFP-peptide fusion (GPS, HEK-293T) (PSI 1-6); higher = more stable;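 also: lentivirally expressed fusions sorted by FACS into six bins by GFP to DsRed ratio, PSI derived from sequencing read proportions per bin multiplied by bin number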
# test.context: c terminus: a fixed tail appended
measurement.label: protein stability index

{"residue.change": "L19Q", "test.result": 2.98}
{"residue.change": "Q6K", "test.result": 2.94}
{"residue.change": "P14Y", "test.result": 3.04}
{"residue.change": "R7M", "test.result": 2.94}
{"residue.change": "C20V", "test.result": 3.07}
{"residue.change": "H5Q", "test.result": 3.08}
